# TARGET_OR_SYSTEM: UniProt:P08581
# Sequence (P08581 25-1390): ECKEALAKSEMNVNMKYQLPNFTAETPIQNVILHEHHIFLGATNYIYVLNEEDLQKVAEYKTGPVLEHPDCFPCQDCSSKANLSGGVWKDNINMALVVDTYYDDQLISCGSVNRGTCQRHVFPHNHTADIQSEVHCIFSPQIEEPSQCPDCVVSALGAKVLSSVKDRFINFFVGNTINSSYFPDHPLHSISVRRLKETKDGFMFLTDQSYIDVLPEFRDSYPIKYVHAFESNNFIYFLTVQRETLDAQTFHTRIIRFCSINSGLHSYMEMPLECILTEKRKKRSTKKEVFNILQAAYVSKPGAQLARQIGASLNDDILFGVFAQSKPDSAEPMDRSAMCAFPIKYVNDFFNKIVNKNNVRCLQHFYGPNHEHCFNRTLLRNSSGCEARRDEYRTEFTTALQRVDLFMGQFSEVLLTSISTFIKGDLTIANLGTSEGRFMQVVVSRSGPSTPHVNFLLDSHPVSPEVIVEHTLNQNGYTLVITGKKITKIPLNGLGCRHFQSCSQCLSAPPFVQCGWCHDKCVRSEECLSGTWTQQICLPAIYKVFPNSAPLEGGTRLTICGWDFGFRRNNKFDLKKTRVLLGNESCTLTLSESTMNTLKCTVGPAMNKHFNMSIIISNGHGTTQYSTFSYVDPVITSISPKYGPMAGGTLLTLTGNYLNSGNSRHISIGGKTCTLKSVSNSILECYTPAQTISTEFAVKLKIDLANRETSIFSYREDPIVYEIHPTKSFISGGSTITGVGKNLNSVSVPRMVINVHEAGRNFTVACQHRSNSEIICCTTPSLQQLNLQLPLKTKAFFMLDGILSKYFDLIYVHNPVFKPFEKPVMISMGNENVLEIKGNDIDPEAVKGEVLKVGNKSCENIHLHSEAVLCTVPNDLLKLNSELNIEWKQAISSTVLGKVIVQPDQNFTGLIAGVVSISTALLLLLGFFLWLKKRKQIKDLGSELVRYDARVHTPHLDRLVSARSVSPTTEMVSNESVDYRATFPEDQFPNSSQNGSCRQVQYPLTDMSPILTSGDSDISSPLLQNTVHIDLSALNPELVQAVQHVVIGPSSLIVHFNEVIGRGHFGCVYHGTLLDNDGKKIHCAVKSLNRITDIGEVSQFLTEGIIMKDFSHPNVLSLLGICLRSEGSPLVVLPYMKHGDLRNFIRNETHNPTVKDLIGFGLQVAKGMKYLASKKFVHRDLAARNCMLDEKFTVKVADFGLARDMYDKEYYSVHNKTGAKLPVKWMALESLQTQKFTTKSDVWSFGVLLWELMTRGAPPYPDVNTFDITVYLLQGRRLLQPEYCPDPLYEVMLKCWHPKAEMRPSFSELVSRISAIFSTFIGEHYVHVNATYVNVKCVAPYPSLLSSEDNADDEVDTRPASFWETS
# ASSAY_NAME: MET (human) AlphaScreen kinase assay, Km of ATP
# Assay type: biochemical
# SETUP_CONDITIONS: AlphaScreen, Km of ATP; read-out: Met biochemical IC50
READOUT_LABEL: IC50

C[C@@H](Oc1c(N)ncc2c(C3=CCN(C(=O)c4cnn[nH]4)CC3)coc12)c1c(Cl)ccc(F)c1Cl ... 500 to 5000 nM

In: Report its IC50 with UniProt:P08581 as the test system: C[C@@H](Oc1c(N)ncc2c(-c3ccc(C(=O)O)s3)coc12)c1c(Cl)ccc(F)c1Cl
Out: < 500 nM

In: Report its IC50 with UniProt:P08581 as the test system: CC(Cc1c(Cl)cccc1Br)Oc1c(N)ncc2c(-c3cnn(C4CCNCC4)c3)coc12 (stereo not drawn)
Out: < 500 nM

In: Report its IC50 with UniProt:P08581 as the test system: C[C@@H](Oc1c(N)ncc2c(-c3ccc(CN4CCNCC4)s3)coc12)c1c(Cl)ccc(F)c1Cl
Out: < 500 nM

In: Report its IC50 with UniProt:P08581 as the test system: CC(Oc1c(N)ncc2c(-c3cnn(C4CCNCC4)c3)coc12)c1cccc(Br)c1 (stereo not drawn)
Out: < 500 nM

In: Report its IC50 with UniProt:P08581 as the test system: CC(Oc1c(N)ncc2c(-c3cnn(C4CCNCC4)c3)coc12)c1cccc(-c2cn[nH]c2)c1 (stereo not drawn)
Out: 500 to 5000 nM

In: Report its IC50 with UniProt:P08581 as the test system: CCN1CC2CC1CN2C(=O)N1CC=C(c2coc3c(O[C@H](C)c4c(Cl)ccc(F)c4Cl)c(N)ncc23)CC1 (stereo partly drawn)
Out: < 500 nM

In: Report its IC50 with UniProt:P08581 as the test system: C[C@@H](Oc1c(N)ncc2c(-c3cccc(C(=O)N(C)C)c3)coc12)c1c(Cl)ccc(F)c1Cl
Out: 500 to 5000 nM

In: Report its IC50 with UniProt:P08581 as the test system: C[C@@H](Oc1c(N)ncc2c(C3=CCN(C(=O)C4CCCCC4)CC3)coc12)c1c(Cl)ccc(F)c1Cl
Out: 500 to 5000 nM

In: Report its IC50 with UniProt:P08581 as the test system: C[C@@H](Oc1c(N)ncc2c(C3=CCN(C(=O)[C@H](N)Cc4cnc[nH]4)CC3)coc12)c1c(Cl)ccc(F)c1Cl
Out: < 500 nM

In: Report its IC50 with UniProt:P08581 as the test system: C[C@@H](Oc1c(N)ncc2c(C3=CCN(C(=O)c4ccccc4)CC3)coc12)c1c(Cl)ccc(F)c1Cl
Out: 500 to 5000 nM

In: Report its IC50 with UniProt:P08581 as the test system: C[C@@H](Oc1c(N)ncc2c(C3=CCN(C(=O)CN4CCCC4)CC3)coc12)c1c(Cl)ccc(F)c1Cl
Out: < 500 nM
